# MEASURED_ON: A1-adenosine receptor human recombinant (Homo sapiens, UniProt P30542)
# Sequence (P30542 whole entry): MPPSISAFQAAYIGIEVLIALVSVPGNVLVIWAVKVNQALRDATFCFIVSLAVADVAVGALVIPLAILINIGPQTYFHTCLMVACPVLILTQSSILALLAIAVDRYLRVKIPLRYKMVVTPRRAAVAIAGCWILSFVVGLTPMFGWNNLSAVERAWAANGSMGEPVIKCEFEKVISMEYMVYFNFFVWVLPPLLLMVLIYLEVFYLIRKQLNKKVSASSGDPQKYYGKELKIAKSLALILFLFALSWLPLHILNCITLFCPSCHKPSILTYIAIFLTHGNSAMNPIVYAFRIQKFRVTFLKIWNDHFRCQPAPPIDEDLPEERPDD
# ASSAY_NOTES: Radioligand binding assay 1, human recombinant A1 adenosine receptor
# CONDITION_SUMMARY: [3H]CCPA
pKi: −log10 of the molar value.
VALUE_TYPE: pKi

# count of solved cases: 2
COMPOUND: C#CCn1c(=O)c2c(nc(C#Cc3ccc(OC)c(OC)c3)n2C)n(CCF)c1=O [drawing 587]
pKi: < 6.00

COMPOUND: C#CCn1c(=O)c2c(nc(C#Cc3ccc(OC)c(OC)c3)n2C)n(Cc2ccco2)c1=O [drawing 579]
pKi: < 6.00

In the following, a different compound is considered.
Prompt: Name the recorded pKi of the compound listed here: C#CCn1c(=O)c2c(nc(C#Cc3ccc(OC)c(OC)c3)n2C)n(CCCOC)c1=O [drawing 581]
Response: < 6.00
